The measurements presented in this section are drawn from PubChem BioAssay (NCI).

Test: NCI Yeast Anticancer Drug Screen. Data for the mlh1 rad18 strain (AID 175)
Conditions: S. cerevisiae mlh1 rad18 strain growth inhibition; at 50.0 µM (retest, dose inferred, filed as 5.0)
The panel holds about 79,000 compounds, 15% with a hit somewhere; the sample as a whole holds those more often. Active and inactive are the calls of the source. Cut-off read from the data, not from the text of the source: active = growth inhibition above about 70%; inactive = the rest.
API: response.call in 1.0 for active, 0.0 for inactive

Reference set (5 entries):
[[record]]
compound = "Cc1[nH]nc(C(F)(F)F)c1N=NN1CCC(C(N)=O)CC1"
label_class = 1.0

[[record]]
compound = "CCN(CC)c1ccc(NC(C(=O)c2ccc(Cl)cc2)c2ccc(Cl)cc2)cc1 (stereo unspecified)"
label_class = 0.0

[[record]]
compound = "Cc1nc2c(Cl)cccc2c2ccccc12"
label_class = 1.0

[[record]]
compound = "Cn1c(=O)c2c(nc([N+](=O)[O-])n2C)n(C)c1=O"
label_class = 0.0

[[record]]
compound = "CCC(N)C(O)C(C)C (stereo unspecified)"
label_class = 0.0


## Input Status in this test for N#C/C(=C/c1ccc([N+](=O)[O-])o1)c1ccccc1 ?
## Output 0.0

====

Experiment: NCI Yeast Anticancer Drug Screen. Data for the sgs1 mgt1 strain (AID 161);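 note: 0% = growth of cultures given vehicle only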
Conditions: S. cerevisiae sgs1 mgt1 strain, at 50.0 µM (retest, dose inferred, filed as 5.0)
The panel holds about 79,000 compounds, 15% with a hit somewhere; the sample as a whole holds those more often. Activity calls are given as the source filed them. Cut-off read from the data, not from the text of the source: active = growth inhibition above about 70%; inactive = the rest.
API: response.call in active, inactive

Reference set (5 entries):
[[record]]
compound_smiles = "CNC(=O)OCc1c(COC(=O)NC)c2n(c1C)-c1ccccc1CCC2"
label_class = "active"

[[record]]
compound_smiles = "C#CC(CC)(CC)NC(=O)NC(C)(C)C"
label_class = "inactive"

[[record]]
compound_smiles = "Clc1cc[c]([Sn]([O][Sn]([c]2ccc(Cl)cc2)([c]2ccc(Cl)cc2)[c]2ccc(Cl)cc2)([c]2ccc(Cl)cc2)[c]2ccc(Cl)cc2)cc1"
label_class = "active"

[[record]]
compound_smiles = "CCOC(=O)N1CCN(C=S)CC1"
label_class = "inactive"

[[record]]
compound_smiles = "Cc1ccc(S(=O)(=O)N/N=c2\\c(C)c(C3=NS(=O)(=O)c4cc(S(N)(=O)=O)c(Cl)cc4N3)oc3c(Cl)cc(Cl)cc23)cc1"
label_class = "inactive"


## Input Status in this test for CCC(CC)C1(C(=O)OCCN(CC)CC)CCCCC1 ?
## Output inactive

## Input Next entry: CC(=O)/C(=C\c1ccc(N(C)C)cc1)C(C)=[N+](C)C(=O)c1c(/[N+](C)=C(C)\C(=C\c2ccc(N(C)C)cc2)C(C)=O)ncn1C
## Output inactive

## Input Next entry: COc1cc2c(c(OC)c1OC)-c1ccc(SC)c(=O)cc1[C@@H](NC(=O)Oc1ccccc1)CC2
## Output inactive

## Input Next entry: Cn1sc2ccccc2c1=S
## Output active

## Input Next entry: O=S(=O)(/C=C/c1cccnc1)/C=C/c1cccnc1
## Output inactive

====

Recorded growth inhibition by entry
Assay: NCI Yeast Anticancer Drug Screen. Data for the rad50 strain (AID 155);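 note: 0% = growth of vehicle-only cultures of the same strain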
Settings: S. cerevisiae rad50 strain growth inhibition; at 5.0 µM (retest, dose inferred, filed as 0.5); active compounds read high
Procedure: Growth inhibition of yeast strains with defined genetic alterations is measured as a screen for potential anti-cancer activity. Selected strains with alterations in DNA damage repair or cell cycle control were exposed to compounds and growth inhibition was measured relative to vehicle treated controls. The strain used in this assay is rad50
About 79,000 compounds went through this panel and 15% of them were active in at least one assay; those are over-represented in the sample as a whole.
Kindly answer with a numeric value in %, unit omitted.

Record excerpt, results attached:
[[record]]
compound = "CC(=O)CC(C)=O.CCN(CC)CC[C-]=O.[Pd+2]"
readout_type = "growth inhibition"
readout_unit = "%"
reading = 1

[[record]]
compound = "O=C(O)c1ccccc1-c1c2ccc(=O)c(Br)c-2oc2c(Br)c(O)ccc12"
readout_type = "growth inhibition"
readout_unit = "%"
reading = 13

[[record]]
compound = "O=C(O)c1ccc(NCc2c(O)ccc3ccccc23)cc1"
readout_type = "growth inhibition"
readout_unit = "%"
reading = 5

[[record]]
compound = "Cc1cc(NCCCCCCCNc2cc(C)nc3cc(N)ccc23)c2ccc(N)cc2n1"
readout_type = "growth inhibition"
readout_unit = "%"
reading = 4

[[record]]
compound = "Cc1nc(N)nc(-c2ccccc2)c1N=Nc1ccc(Cl)cc1"
readout_type = "growth inhibition"
readout_unit = "%"
reading = -2

[[record]]
compound = "C[Si](C)(CCC(=O)O)O[Si](C)(C)CCC(=O)O"
readout_type = "growth inhibition"
readout_unit = "%"
reading = -6

[[record]]
compound = "O=[N+]([O-])c1ccc(/C=N/O)o1"
readout_type = "growth inhibition"
readout_unit = "%"
reading = 20

[[record]]
compound = "Cc1c2ccncc2cc2c1sc1ccncc12"
readout_type = "growth inhibition"
readout_unit = "%"
reading = 97


## Input Any idea what its growth inhibition is? The compound is CCCCNc1cccc2ncccc12
## Output 11

## Input Next entry: Clc1ccc(SSc2ccc(Cl)cn2)nc1
## Output 5

## Input Next entry: Nc1ccc(S(=O)(=O)N2CCCc3ccccc32)cc1
## Output 5

## Input Next entry: C=C1C(=O)OC2CC3(C)CC(O)C(O)C(=C)C3CC12 (configuration not stated)
## Output 0

## Input Next entry: CCOC(=O)C1=C(C)NC(C)=C(C(=O)OCC)C1c1ccc([N+](=O)[O-])s1
## Output 61

## Input Next entry: O=S(c1ccccc1)c1c(Cl)c(Cl)nc(Cl)c1Cl (configuration not stated)
## Output 97

## Input Next entry: NCCC1=CCCCC1
## Output 1

## Input Next entry: CCCCCCCCCCCCCCCC[N+](C)(C)CC(=O)O
## Output 6

## Input Next entry: CCCCCN(CCCCC)CCCNc1ccc(C)c2sc3ccccc3c(=O)c12
## Output 98

## Input Next entry: CCCCCCCCCCCCCCCCCCOC(=O)C(N)Cc1ccccc1 (configuration not stated)
## Output -1

## Input Next entry: C#CCNC(C)(C)C
## Output 1

## Input Next entry: CSC(=S)NN=C1CCCC1
## Output 66

## Input Next entry: CC1=C(C(=O)NCc2ccccc2)C(c2ccccc2[N+](=O)[O-])C(C(=O)NCc2ccccc2)=C(C)N1
## Output 16

## Input Next entry: CCOC(=O)Oc1ccc(C)cc1[N+](=O)[O-]
## Output -1

## Input Next entry: O=C(c1ccccc1)N1CCN(c2cccc(Cl)c2)CC1
## Output 0

## Input Next entry: CCOC(=O)C(=Cc1cccnc1C)C(=O)OCC
## Output 16

## Input Next entry: COC(=O)c1c(C)cccc1C(=O)c1c(C)cc(C)cc1C
## Output -6

## Input Next entry: Fc1ccc(NC(=S)SCc2ccccc2)cc1
## Output 4

## Input Next entry: N#Cc1c([N+](=O)[O-])cc(C(F)(F)F)cc1[N+](=O)[O-]
## Output 92

## Input Next entry: Cc1ccnc2[nH]c3ccccc3c(=O)c12
## Output 29

## Input Next entry: Nc1c(C(=O)Nc2ccccc2)[n+]([O-])c2ccccc2[n+]1[O-]
## Output -2

## Input Next entry: [Pt].c1ccc(P(CCP(CCP(c2ccccc2)c2ccccc2)CCP(c2ccccc2)c2ccccc2)c2ccccc2)cc1
## Output 6

## Input Next entry: COc1cc(/C=N/NC(=S)Nc2ccccc2)ccc1O
## Output -20
